- ASSAY DETAILS: A375 melanoma cell proliferation, dose response, counter-screen for MITF inhibitor project, CellTiter-Glo luminescence, dry powder, set 5 (AID 624368)
- PARTICULARS: A375 viability, CellTiter-Glo ATP luminescence, 24 h; at 35 µM (top of the series)
MEASURED ENDPOINT: activity change, negative = cytotoxicity (%)

* O=C1C=C(NS(=O)(=O)c2ccc(Br)cc2)C(=O)c2ccccc21 | 2.29
* CNC1=CC(=O)c2ccccc2C1=O | 3.5
* O=C1C(NS(=O)(=O)c2ccccc2)=C(N2CCOCC2)C(=O)c2ccccc21 | -1.41
* NC1=C(c2ccc(OC(F)(F)F)cc2)C(=O)c2ccccc2C1=O | -3.65
* O=C1C(Nc2ccccc2)=C(NS(=O)(=O)c2ccccc2[N+](=O)[O-])C(=O)c2ccccc21 | -2.72
* NC1=C(NS(=O)(=O)c2ccc(Br)s2)C(=O)c2ccccc2C1=O | 3.75
* CCN1CCN(C2=C(NS(=O)(=O)c3ccc(Br)cc3)C(=O)c3ccccc3C2=O)CC1 | 8.86
* O=C1C(NS(=O)(=O)c2ccccc2)=C(N2CCCCC2)C(=O)c2ccccc21 | 0.773
